# reported solubility (g/100 g solution); entries follow
test: xn = mol fraction of the nth substance listed, in the solute-free solvent; conditions: 293.15 K; x2 = 0.5
Answer with a number only.

Worked examples, 5 compounds total:
* CCOc1ccccc1C(N)=O + CC(C)O + CC#N | 5.44
* Cc1ncc(CO)c(CO)c1O.Cl + O + CC#N | 5.11
* Cc1ncc(CO)c(CO)c1O.Cl + O + CC(C)O | 2.8
* Cl.NC(Cc1ccccc1)C(=O)OCc1ccccc1 (stereo not drawn) + CO + CC(C)=O | 4.55
* CCOc1ccccc1C(N)=O + CCO + CC#N | 6.78

Request: For the compound shown here, COC(=O)C(N)CS.Cl (stereo not drawn) + CCO + ClCCl , give the reported solubility (g/100 g solution).
Result: 5.23

Request: Now the same for Cl.N=C(N)NC(=N)N1CCOCC1 + O + CC(C)O
Result: 10.6

Request: Now the same for CCOc1ccccc1C(N)=O + CO + CC#N
Result: 8.25

Request: Now the same for Cc1ncc(CO)c(CO)c1O.Cl + O + CCCO
Result: 4.1

* * *

assay: xn = mol fraction of the nth substance listed, in the solute-free solvent; details: 288.15 K; x2 = 0.4
Measured parameter: solubility (g/100 g solution)

- Cc1c(Br)c(=O)n(C2CCCC2)c2nc(Cl)ncc12 + CC1=CC(=O)CC(C)(C)C1 + CC(C)O: 0.554
- CCOC(=O)OC1=C(c2cc(C)ccc2C)C(=O)NC12CCC(OC)CC2 (configuration not stated) + CC(C)=O + O: 5.58

Request: For the molecule shown here, Cc1ncc(CO)c(CO)c1O.Cl + O + CCCO , give the reported solubility (g/100 g solution).
Result: 2.23

Request: Now the same for CCOC(=O)OC1=C(c2cc(C)ccc2C)C(=O)NC12CCC(OC)CC2 (configuration not stated) + CC(C)O + O
Result: 3.88

Request: Now the same for Cc1c(Br)c(=O)n(C2CCCC2)c2nc(Cl)ncc12 + C1CCOC1 + CCO
Result: 2.74

* * *

assay: xn = mol fraction of the nth substance listed, in the solute-free solvent; conditions: 313.15 K; x2 = 0.4
Measured parameter: solubility (g/100 g solution)
Answer with a number only.

Worked examples, 3 molecules total:
• CCOC(=O)OC1=C(c2cc(C)ccc2C)C(=O)NC12CCC(OC)CC2 (stereo not given) + CC(C)O + O = 13.1
• O=C(NC(C(=O)O)c1ccccc1)OCc1ccccc1 (stereo not given) + CCO + O = 13.9
• Cl.N=C(N)NC(=N)N1CCOCC1 + O + CC(C)O = 9.86

Then there is this molecule:
Request: For the molecule shown here, CCOc1ccccc1C(N)=O + CC#N + CC(C)O , give the reported solubility (g/100 g solution).
Result: 12.4

* * *

assay: xn = mol fraction of the nth substance listed, in the solute-free solvent; settings: 308.15 K; x2 = 0.8
Mark Criterion met for reported solubility (g/100 g solution) of 10 or greater; mark Criterion not met for anything smaller.

* CCOC(=O)OC1=C(c2cc(C)ccc2C)C(=O)NC12CCC(OC)CC2 (centres undefined) + CC(C)=O + O | Criterion met
* Cc1ncc(CO)c(CO)c1O.Cl + O + CCCO | Criterion met
* N#CCNC(=O)c1cnccc1C(F)(F)F + CCOC(C)=O + CCO | Criterion not met
* Cc1c(Br)c(=O)n(C2CCCC2)c2nc(Cl)ncc12 + C1CCOC1 + CCO | Criterion not met
* CCOc1ccccc1C(N)=O + CCO + CC#N | Criterion met

Request: Quick check, solubility (g/100 g solution) >= 10? CCOC(=O)OC1=C(c2cc(C)ccc2C)C(=O)NC12CCC(OC)CC2 (centres undefined) + CO + O
Result: Criterion met

Request: Now the same for Cc1c(Br)c(=O)n(C2CCCC2)c2nc(Cl)ncc12 + CC1=CC(=O)CC(C)(C)C1 + CC(C)O
Result: Criterion not met

* * *

assay: xn = mol fraction of the nth substance listed, in the solute-free solvent; details: 288.15 K; x2 = 0.8
# reported solubility (g/100 g solution); entries follow

Worked examples, 4 compounds total:
* Cc1ncc(CO)c(CO)c1O.Cl + O + CCCO | 9.28
* Cc1ncc(CO)c(CO)c1O.Cl + O + CC(C)O | 7.62
* Cc1c(Br)c(=O)n(C2CCCC2)c2nc(Cl)ncc12 + C1CCOC1 + CCO | 4.47
* Cc1c(Br)c(=O)n(C2CCCC2)c2nc(Cl)ncc12 + CCOC(C)=O + CCO | 0.706

Then there is this compound:
Request: For the compound shown here, CCOC(=O)OC1=C(c2cc(C)ccc2C)C(=O)NC12CCC(OC)CC2 (stereo not given) + CC(C)O + O , give the reported solubility (g/100 g solution).
Result: 3.85

* * *

experiment: xn = mol fraction of the nth substance listed, in the solute-free solvent; settings: 318.15 K; x2 = 0.4
# reported solubility (g/100 g solution); entries follow
Answer with a number only.

Worked examples, 6 compounds total:
- Cc1c(Br)c(=O)n(C2CCCC2)c2nc(Cl)ncc12 + C1CCOC1 + CCO: 7.04
- CCOC(=O)OC1=C(c2cc(C)ccc2C)C(=O)NC12CCC(OC)CC2 (stereo unspecified) + CCO + O: 11.1
- CCOc1ccccc1C(N)=O + CCO + CC#N: 19.2
- CCOc1ccccc1C(N)=O + CO + CC#N: 21.9
- N#CCNC(=O)c1cnccc1C(F)(F)F + CCOC(C)=O + CCO: 15.2
- CCOC(=O)OC1=C(c2cc(C)ccc2C)C(=O)NC12CCC(OC)CC2 (stereo unspecified) + CC(C)=O + O: 19

Request: For the compound shown here, Cc1c(Br)c(=O)n(C2CCCC2)c2nc(Cl)ncc12 + CCOC(C)=O + CCO , give the reported solubility (g/100 g solution).
Result: 1.17

Request: Now the same for CCOC(=O)OC1=C(c2cc(C)ccc2C)C(=O)NC12CCC(OC)CC2 (stereo unspecified) + CC(C)O + O
Result: 16.5

Request: Now the same for CCOc1ccccc1C(N)=O + CC#N + CC(C)O
Result: 15.4

Request: Now the same for CCOC(=O)OC1=C(c2cc(C)ccc2C)C(=O)NC12CCC(OC)CC2 (stereo unspecified) + CO + O
Result: 2.64

Request: Now the same for Cc1c(Br)c(=O)n(C2CCCC2)c2nc(Cl)ncc12 + CC1=CC(=O)CC(C)(C)C1 + CC(C)O
Result: 3.02

* * *

assay: xn = mol fraction of the nth substance listed, in the solute-free solvent; conditions: 283.15 K; x2 = 0.3
Measured parameter: solubility (g/100 g solution)
Answer with a number only.

* O=C(NC(C(=O)O)c1ccccc1)OCc1ccccc1 (stereo not given) + CCO + O | 1.49
* Cl.N=C(N)NC(=N)N1CCOCC1 + O + CC(C)O | 2.04
* Cc1ncc(CO)c(CO)c1O.Cl + O + CCCO | 1.08
* Cc1ncc(CO)c(CO)c1O.Cl + O + CC(C)O | 0.512

Request: For the molecule shown here, Cc1ncc(CO)c(CO)c1O.Cl + O + CC#N , give the reported solubility (g/100 g solution).
Result: 0.776

* * *

# reported solubility (g/100 g solution); entries follow
assay: xn = mol fraction of the nth substance listed, in the solute-free solvent; conditions: 293.15 K; x2 = 0.5454
Answer with a number only.

Worked examples, 3 molecules total:
• c1ccc(-c2ccc(C(c3ccccc3)n3ccnc3)cc2)cc1 (centres undefined) + CC(C)O + O = 1.8
• c1ccc(-c2ccc(C(c3ccccc3)n3ccnc3)cc2)cc1 (centres undefined) + CCCO + O = 1.86
• Nc1nc2ccc(OC(F)(F)F)cc2s1 + CCCO + O = 59.9

Request: For the molecule shown here, Cc1nc2n(c(=O)c1CCN1CCC(c3noc4cc(F)ccc34)CC1)CCCC2 + CC(C)O + O , give the reported solubility (g/100 g solution).
Result: 7.46

* * *

assay: xn = mol fraction of the nth substance listed, in the solute-free solvent; details: 308.15 K; x2 = 0.1666
Measured parameter: solubility (g/100 g solution)
Answer with a number only.

* c1ccc(-c2ccc(C(c3ccccc3)n3ccnc3)cc2)cc1 (centres undefined) + CC(C)O + O | 1.48
* c1ccc(-c2ccc(C(c3ccccc3)n3ccnc3)cc2)cc1 (centres undefined) + CCCO + O | 1.52
* CC1CCC2C(C)C(OC(=O)CCC(=O)O)OC3OC4(C)CCC1C32OO4 (centres undefined) + CC(C)O + O | 2.37

Then there is this compound:
Request: For the compound shown here, Nc1nc2ccc(OC(F)(F)F)cc2s1 + CCCO + O , give the reported solubility (g/100 g solution).
Result: 25.7
